# Test system: Pseudomonas aeruginosa
# assay.notes: Antibacterial activity against Pseudomonas aeruginosa at 0.5 mg/ml incubated for 18 hrs by well plate technique
# Format: functional
# stated.conditions: read-out: DIZ
This listing pairs compounds with measured zone of inhibition at 500 µg/mL.
Give a bare numeral; the unit mm is implied.

Before answering, review these 4 worked examples.
compound: Cc1ccc(-c2nn3c(-c4nc5ccccc5[nH]4)c(-c4ccc(Cl)cc4)nc3s2)cc1
unit.info: mm
recorded.value: 3
//
compound: Cc1ccc(-c2nc3sc(C)nn3c2-c2nc3cc(Cl)ccc3[nH]2)cc1
unit.info: mm
recorded.value: 6
//
compound: COc1ccc(-c2nc3sc(-c4ccc(F)cc4)nn3c2-c2nc3cc(Cl)ccc3[nH]2)cc1
unit.info: mm
recorded.value: 1
//
compound: Cc1nn2c(-c3nc4cc(Cl)ccc4[nH]3)c(-c3ccc(Cl)cc3)nc2s1
unit.info: mm
recorded.value: 1

Lab note: need zone of inhibition at 500 µg/mL for "COc1ccc(-c2nc3sc(-c4ccc(Cl)cc4)nn3c2-c2nc3ccccc3[nH]2)cc1" on Pseudomonas aeruginosa, anyone have it?
1

What about this compound? "Cc1ccc(-c2nc3sc(-c4ccc(Cl)cc4)nn3c2-c2nc3cc(Cl)ccc3[nH]2)cc1"
3

What about this compound? "COc1ccc(-c2nc3sc(-c4ccc(C)cc4)nn3c2-c2nc3cc(Cl)ccc3[nH]2)cc1"
3
